tested on: Wnt5a (protein binding on small-molecule microarray); assay: Wnt5a binders on small-molecule microarray, primary screen, biophysical, 635/667 nm fluorescence (AID 1142); conditions: 635 nm fluorescence, higher = more signal;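 further: fluorescence read at 667 nm with signal to noise per printed feature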
Endpoint label: composite z-score
Reply with the value as a number alone.

Solved cases (5 shown):
INSERT INTO measurements (molecule, endpoint_label, recorded_number) VALUES
  ('C=CCC(OC(C)=O)[C@@H]1[C@@H](N(Cc2ccc(-c3ccccc3)cc2)C(=O)c2ccc(C)cc2)c2cc(OCCCO)ccc2N1C(=O)Cc1ccc2ccccc2c1 (stereo partly drawn)', 'composite z-score', -0.0632),
  ('[N-]=[N+]=NCc1ccccc1[C@@H]1OC(c2ccc(OCCCO)cc2)=N[C@]1(Cc1ccccc1)C(=O)NCCN1CCOCC1', 'composite z-score', 0.629),
  ('CC1CC/C=C\[C@H]2OC34C=CCN(CCN5CCOCC5)C(=O)[C@H]3N(C(C)CO)C(=O)[C@@H]4C2C(=O)O1 (stereo partly drawn)', 'composite z-score', -0.409),
  ('C=CCNC(=O)[C@@H]1[C@H]2C(=O)O[C@H](c3ccccc3)[C@H](c3ccccc3)N2[C@H](c2ccc(O)cc2)[C@@]12C(=O)N(C(=O)OCCOC)c1ccc(C#CCCO)cc12', 'composite z-score', 0.905),
  ('C=CC[C@H](OC(=O)Nc1ccc(SC)cc1)c1ccc(OCCO)cc1', 'composite z-score', -0.348);

# lookup: C=CCNC(=O)[C@H]1[C@@H]2C(=O)O[C@@H](c3ccccc3)[C@@H](c3ccccc3)N2[C@@H](c2ccc(OCCO)cc2)[C@]12C(=O)N(C(=O)OCCOC)c1ccc(C#Cc3ccc(OC)cc3)cc12 on Wnt5a (protein binding on small-molecule microarray), composite z-score = 0.209

# lookup: NC(=O)[C@H]1[C@@H]2C(=O)O[C@@H](c3ccccc3)[C@@H](c3ccccc3)N2[C@@H](c2ccc(O)cc2)[C@]12C(=O)Nc1ccc(C#CC3=CCCCC3)cc12 on Wnt5a (protein binding on small-molecule microarray), composite z-score = -0.0856

# lookup: CN(C)CCCCNC(=O)[C@H]1C[C@H]2C(=O)N[C@@H](CCCC[N+](C)(C)C)C(=O)N2[C@H]1c1ccc(O)cc1 on Wnt5a (protein binding on small-molecule microarray), composite z-score = 0.0044

###

biological target: NADPH oxidase 4 (Homo sapiens); test: NOX4-dependent H2O2 signal modulators, primary screen, NOX inhibitor project, cell-based, HEK293-NOX4, tetracycline-induced, Amplex Red fluorescence (AID 1160); conditions: 45 min, higher = more signal, called active from +8 up or from −8 down
Below, each of the molecules is paired with its reported z-score value.
Reply with the value as a number alone.

Solved cases (6 shown):
INSERT INTO results (molecule, recorded_number) VALUES
  ('C=C[C@@H](C)[C@@H](OC(=O)Nc1ccc(SC)cc1)c1ccc(OCCO)cc1', -0.0499),
  ('CCOC(=O)C1=C[C@@H](C(C)(C)C)N(S(=O)(=O)c2ccc(C)cc2)[C@H]1c1cccc(Cl)c1', -0.842),
  ('C=CCC(OC(C)=O)[C@@H]1[C@@H](N(Cc2ccc(-c3cccc(C(F)(F)F)c3)o2)C(=O)c2ccc(C)cc2)c2cc(OCCCO)ccc2N1C(=O)Cc1ccc(OC)cc1 (some centres undefined)', 0.641),
  ('O=C(CS)NCCCCCNC(=O)[C@@H]1C[C@@H]2C(=O)N[C@@H](Cc3ccccc3)C(=O)N2[C@@H]1c1cccc(OCCO)c1', 0.924),
  ('C=C(COC)/C(=C/C[C@@H](OC(=O)c1ccncc1)c1ccccc1OCCO)c1cc(C(=O)OC)ccc1OC', -1.4),
  ('CC(=O)NCCCC[C@@H]1NC(=O)[C@@H]2C[C@H](C(=O)NCCCCCCN)[C@H](c3cccc(OCCO)c3)N2C1=O', 0.353);

molecule CC(C)[C@H]1NC(=O)[C@@]23C(=O)N[C@@H](Cc4ccccc4)C2[C@H](C)[C@@]2(C)O[C@H]2C3/C=C/CCC/C=C/CNC(=O)[C@H](Cc2ccccc2)NC1=O (some centres undefined) , z-score observed: 0.525

molecule COC(=O)C1=CC(CCCO)=CC(C)N(Cc2cccc(OC(F)(F)F)c2)C=C1C(=O)OC (centres undefined) , z-score observed: -0.317

###

assay: modulators of S6 phosphorylation in cells, primary screen, cell-based, A549, cytoblot, luminescence, serum-stimulated (AID 1158); conditions: A549 phospho-S6 cytoblot, 5 h, higher = more signal;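 further: serum-stimulated A549 lung adenocarcinoma cells; signal is phosphorylated S6 detected by cytoblot immunostaining with HRP secondary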
Below, each of the molecules is paired with its reported z-score value.
Reply with the value as a number alone.

Solved cases (6 shown):
INSERT INTO results (molecule, endpoint_label, recorded_number) VALUES
  ('C=C(CCCC)C(=O)CC[C@H](OC(C)=O)c1ccc(OCCO)cc1', 'z-score', 2),
  ('CN1C=C(C(=O)OCCS(C)(=O)=O)C(C(=O)OCCS(C)(=O)=O)=CC(c2ccc(CO)cc2)=CC1c1cccs1 (stereo not drawn)', 'z-score', 0.0225),
  ('COc1cc2c(cc1OC)CN(C(=O)[C@@H]1[C@H]3C(=O)O[C@H](c4ccccc4)[C@H](c4ccccc4)N3[C@H](c3ccc(O)cc3)[C@@]13C(=O)Nc1ccc(C#CCCO)cc13)CC2', 'z-score', -0.42),
  ('COc1ccc(NC(=O)O[C@H]2[C@@H]3OC(=O)[C@H](Cc4cccc(Br)c4)C/C=C/C[C@@H](Cc4cccc(Br)c4)C(=O)O[C@H]3[C@@H](OC)O[C@@H]2CO)cc1', 'z-score', 0.353),
  ('COCCCNC(=O)[C@@H]1c2ccccc2C(=O)N(C2Cc3ccccc3C2)[C@H]1c1ccc(CO)cc1', 'z-score', -0.256),
  ('O=C(CS)NCCCCCNC(=O)[C@@H]1C[C@@H]2C(=O)N[C@@H](Cc3ccccc3)C(=O)N2[C@@H]1c1cccc(OCCO)c1', 'z-score', -0.16);

Consider the record given below.
molecule COc1cc(C(O)C2C=CC3C(=O)N(Cc4ccccc4)C(=O)C3N2n2cnnc2)cc(OC)c1OC (stereo not drawn) , z-score observed: 0.866

###

assay: small-molecule microarray binders of probe aShh, primary screen, biochemical, biotinylated probe, 635/667 nm fluorescence (AID 1114); conditions: higher = more signal;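 further: probe is biotin-labelled aShh protein from a stem cell growth factor screen; measures binding of labelled protein to compounds printed on the slide; score merges feature fluorescence at 667 nm with signal-to-noise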
Assign class by composite z-score: not lower than 0.2 means MET; lower than 0.2 means NOT MET.

INSERT INTO measurements (item_smiles, answer_label) VALUES
  ('C=CCNC(=O)[C@H]1[C@@H]2C(=O)O[C@@H](c3ccccc3)[C@@H](c3ccccc3)N2[C@@H](c2ccc(OCCO)cc2)[C@]12C(=O)Nc1ccc(C#CCNC(N)=O)cc12', 'NOT MET'),
  ('NCCCCCNC(=O)[C@H]1C[C@H]2C(=O)N[C@@H](Cc3ccccc3)C(=O)N2[C@H]1c1ccc(O)cc1', 'MET');

Confirm if composite z-score reported for the compound [N-]=[N+]=Nc1ccccc1C[C@]1(C(=O)O)N=C(c2ccc(OCCCO)cc2)O[C@H]1c1ccccc1 is 0.2 or above.
NOT MET

Confirm if composite z-score reported for the compound CN(C)C(=O)[C@]1(CCS(=O)(=O)c2ccccc2)N=C(c2ccc(OCCCO)cc2)O[C@@H]1c1ccccc1 is 0.2 or above.
MET

Confirm if composite z-score reported for the compound CCOC(=O)C1=C[C@@H](C(C)(C)C)N(S(=O)(=O)c2ccc(C)cc2)[C@H]1c1ccc(C)cc1 is 0.2 or above.
NOT MET

Confirm if composite z-score reported for the compound CC(C)CNC(=O)[C@@]1(C)c2ccccc2C(=O)N(Cc2cc(C(F)(F)F)cc(C(F)(F)F)c2)[C@H]1c1ccc(CO)cc1 is 0.2 or above.
NOT MET

Confirm if composite z-score reported for the compound COc1ccc([Si](C)(C)[C@H]2[C@H](CC(=O)N3Cc4ccccc4C[C@H]3CO)O[C@@]3(C(=O)N(Cc4ccc(N5C(=O)c6cccc7cccc5c67)cc4)c4ccccc43)[C@@H]2C)cc1 is 0.2 or above.
NOT MET

###

assay: binders of probe aFGF10 on microarray, primary screen, stem cell growth factor project, biochemical, small-molecule microarray, fluorescence 635/667 (AID 1071); conditions: higher = more signal;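 further: score merges 667 nm spot intensity and signal to noise from triplicate slides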
Endpoint label: composite z-score
Reply with the value as a number alone.

Solved cases (3 shown):
INSERT INTO measurements (item_smiles, recorded_number) VALUES
  ('C=C(COC)C(=O)CC[C@H](OC(=O)c1cccnc1)c1ccc(CO)o1', 0.842),
  ('C=C(COC)/C(=C/C[C@H](OC(C)=O)c1cccc(OCCO)c1)c1cnc2ccccc2c1', 1.05),
  ('CC(C)C(=C=CC[C@@H](O)c1cccc(OCCO)c1)C[C@@H](O)c1ccccn1', 0.815);

molecule O=C1O[C@H](c2ccccc2)[C@H](c2ccccc2)N2[C@H]1[C@@H](C(=O)N1CCCCCCC1)[C@]1(C(=O)Nc3ccc(C#CC4(O)CCCCCC4)cc31)[C@H]2c1ccc(O)cc1 , composite z-score observed: 0.822

molecule C=C(COC)C(=O)CC[C@H](OC(C)=O)c1ccc(OCCO)cc1 , composite z-score observed: 1.21
